Molecular target: T1, Anti-CD28 Fab (SEQ ID NOs: 696, 697)
T1 construct: In the phage ELISA the Fab was biotinylated and captured on neutravidin coated plates
T1 sequence (VH, as listed by the source, chain 1 of 2): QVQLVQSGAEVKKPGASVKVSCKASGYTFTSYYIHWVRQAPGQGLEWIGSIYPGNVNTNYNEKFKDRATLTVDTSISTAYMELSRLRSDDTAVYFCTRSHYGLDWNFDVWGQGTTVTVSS
T1 sequence (VL, as listed by the source, chain 2 of 2): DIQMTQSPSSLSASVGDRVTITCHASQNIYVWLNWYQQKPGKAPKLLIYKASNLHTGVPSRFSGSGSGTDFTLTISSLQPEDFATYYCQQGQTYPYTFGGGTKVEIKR
Assay: phage binding ELISA on captured anti-CD28 Fab; competitor: CD28 antigen pre-incubated in the wells
PROPERTY: Anti-CD28 Fab signal in the presence of CD28 (phage binding ELISA)

{"BINDER": "YCDGHFREYMQKCL [Phage-692]", "RECORDED MEASUREMENT": 0.06}
{"BINDER": "YCEGHSPQYMSKCL [Phage-691]", "RECORDED MEASUREMENT": 0.07}
{"BINDER": "YCDGHLIEYMEKCL [Phage-688]", "RECORDED MEASUREMENT": 0.06}
{"BINDER": "YCEGHAPQHMDKCL [Phage-690]", "RECORDED MEASUREMENT": 0.08}
{"BINDER": "YCDGHVGEYMQKCL [Phage-683]", "RECORDED MEASUREMENT": 0.08}

Which Anti-CD28 Fab signal in the presence of CD28 (phage binding ELISA) is reported for this binder? YCDGHASEYMMKCL [Phage-687] 0.06

And for YCSGHLPEYMSKCL [Phage-695] ? 0.09

And for YCEGHAIQYMSKCL [Phage-689] ? 0.06
